# Test system: Staphylococcus aureus
# method-notes: Antimicrobial activity against Staphylococcus aureus MTCC 1430 after 24 hr by serial dilution method
# Format: functional
I would appreciate it if you labelled entries met when -logMIC is 2 or higher, otherwise not met.

Reported -logMIC at or above 2? CC(C)[C@@H]1CC[C@@H](C)C[C@H]1OC(=O)c1ccc([N+](=O)[O-])cc1[N+](=O)[O-]
met

What do you get for CC(C)[C@@H]1CC[C@@H](C)C[C@H]1OC(=O)c1cccc([N+](=O)[O-])c1 ?
met

What do you get for CCn1cc(C(=O)O)c(=O)c2cc(F)c(N3CCNCC3)cc21 ?
met

What do you get for CC(C)[C@@H]1CC[C@@H](C)C[C@H]1OC(=O)c1ccc([N+](=O)[O-])cc1 ?
met

What do you get for Cc1ccccc1C(=O)O[C@@H]1C[C@H](C)CC[C@H]1C(C)C ?
not met

What do you get for CC(C)[C@@H]1CC[C@@H](C)C[C@H]1OC(=O)/C=C/c1cccc([N+](=O)[O-])c1 ?
met

###

# method-notes: Octanol-water partition coefficient, log P of the compound
# Format: physicochemical
Kindly state logP for each of the entries shown.
Answer with the value's number alone.

Recorded logP for CC(C)[C@@H]1CC[C@@H](C)C[C@H]1OC(=O)c1cccc(Cl)c1 , please?
5.34

What do you get for COc1ccc(C(=O)O[C@@H]2C[C@H](C)CC[C@H]2C(C)C)cc1 ?
4.57

What do you get for COc1ccccc1C(=O)O[C@@H]1C[C@H](C)CC[C@H]1C(C)C ?
4.57

What do you get for CC(C)[C@@H]1CC[C@@H](C)C[C@H]1OC(=O)c1ccc(Cl)cc1 ?
5.34

What do you get for CC(C)[C@@H]1CC[C@@H](C)C[C@H]1OC(=O)c1ccccc1[N+](=O)[O-] ?
4.78

What do you get for CC(=O)O[C@@H]1C[C@H](C)CC[C@H]1C(C)C ?
2.91

###

Kindly state logP for each of the entries shown.
# method-notes: Octanol-water partition coefficient, log P of the compound
# Assay type: physicochemical
Answer with the value's number alone.

Recorded logP for CC(C)[C@@H]1CC[C@@H](C)C[C@H]1OC(=O)/C=C/c1ccccc1 , please?
5.23

What do you get for CC(C)[C@@H]1CC[C@@H](C)C[C@H]1OC(=O)CCl ?
3.5

What do you get for CC(C)[C@@H]1CC[C@@H](C)C[C@H]1OC(=O)c1cccc(Br)c1 ?
5.61

What do you get for CC(C)[C@@H]1CC[C@@H](C)C[C@H]1OC(=O)c1cccc([N+](=O)[O-])c1 ?
4.78

What do you get for CC(C)[C@@H]1CC[C@@H](C)C[C@H]1OC(=O)c1ccccc1Br ?
5.61

What do you get for Cc1ccccc1C(=O)O[C@@H]1C[C@H](C)CC[C@H]1C(C)C ?
5.29

What do you get for CC(C)[C@@H]1CC[C@@H](C)C[C@H]1OC(=O)c1ccc([N+](=O)[O-])cc1 ?
4.78

What do you get for Cc1ccc(C(=O)O[C@@H]2C[C@H](C)CC[C@H]2C(C)C)cc1 ?
5.29

What do you get for CCC(=O)O[C@@H]1C[C@H](C)CC[C@H]1C(C)C ?
3.54

What do you get for CC(C)[C@@H]1CC[C@@H](C)C[C@H]1OC(=O)/C=C/c1ccccc1[N+](=O)[O-] ?
5.18

What do you get for CC(C)[C@@H]1CC[C@@H](C)C[C@H]1OC(=O)c1ccccc1Cl ?
5.34

What do you get for Cc1cccc(C(=O)O[C@@H]2C[C@H](C)CC[C@H]2C(C)C)c1 ?
5.29

What do you get for CC(C)[C@@H]1CC[C@@H](C)C[C@H]1OC(=O)c1ccc(Cl)cc1Cl ?
5.86

What do you get for CC(C)[C@@H]1CC[C@@H](C)C[C@H]1OC(=O)c1ccc(Br)cc1 ?
5.61

What do you get for CC(Cl)C(=O)O[C@@H]1C[C@H](C)CC[C@H]1C(C)C (stereo not given in full) ?
4.04

What do you get for CC(C)[C@@H]1CC[C@@H](C)C[C@H]1OC(=O)c1ccc([N+](=O)[O-])cc1[N+](=O)[O-] ?
4.73

What do you get for CC(C)[C@@H]1CC[C@@H](C)C[C@H]1OC(=O)/C=C/c1cccc([N+](=O)[O-])c1 ?
5.18

What do you get for CC(C)[C@@H]1CC[C@@H](C)C[C@H]1OC(=O)c1ccccc1 [MENTHYL BENZOATE] ?
4.82

What do you get for COc1cccc(C(=O)O[C@@H]2C[C@H](C)CC[C@H]2C(C)C)c1 ?
4.57

What do you get for CC(C)[C@@H]1CC[C@@H](C)C[C@H]1OC(=O)/C=C/c1ccc([N+](=O)[O-])cc1 ?
5.18

###

Kindly state -logMIC for each of the entries shown.
# System: Staphylococcus aureus
# method-notes: Antimicrobial activity against Staphylococcus aureus MTCC 1430 after 24 hr by serial dilution method
# Format: functional
Answer with the value's number alone.

Reported -logMIC for Staphylococcus aureus, given CCC(=O)O[C@@H]1C[C@H](C)CC[C@H]1C(C)C ?
1.75

What do you get for CC(C)[C@@H]1CC[C@@H](C)C[C@H]1OC(=O)c1cccc(Cl)c1 ?
1.97

What do you get for CC(C)[C@@H]1CC[C@@H](C)C[C@H]1OC(=O)c1ccc(Br)cc1 ?
1.98

What do you get for COc1cccc(C(=O)O[C@@H]2C[C@H](C)CC[C@H]2C(C)C)c1 ?
1.97

What do you get for CC(C)[C@@H]1CC[C@@H](C)C[C@H]1OC(=O)c1ccc(Cl)cc1Cl ?
2.02

What do you get for Cc1cccc(C(=O)O[C@@H]2C[C@H](C)CC[C@H]2C(C)C)c1 ?
2.05

What do you get for CC(C)[C@@H]1CC[C@@H](C)C[C@H]1OC(=O)c1cccc(Br)c1 ?
1.96

What do you get for CC(C)[C@@H]1CC[C@@H](C)C[C@H]1OC(=O)/C=C/c1ccc([N+](=O)[O-])cc1 ?
2.03

What do you get for CC(C)[C@@H]1CC[C@@H](C)C[C@H]1OC(=O)c1ccccc1 [MENTHYL BENZOATE] ?
1.92

What do you get for COc1ccccc1C(=O)O[C@@H]1C[C@H](C)CC[C@H]1C(C)C ?
2.06

What do you get for CC(C)[C@@H]1CC[C@@H](C)C[C@H]1OC(=O)/C=C/c1ccccc1 ?
1.96

What do you get for CC(Cl)C(=O)O[C@@H]1C[C@H](C)CC[C@H]1C(C)C (stereo partly drawn) ?
1.6

What do you get for CC(=O)O[C@@H]1C[C@H](C)CC[C@H]1C(C)C ?
1.5

What do you get for CC(C)[C@@H]1CC[C@@H](C)C[C@H]1OC(=O)c1ccc(Cl)cc1 ?
1.88

What do you get for CC(C)[C@@H]1CC[C@@H](C)C[C@H]1OC(=O)c1ccccc1Cl ?
1.97

What do you get for CC(C)[C@@H]1CC[C@@H](C)C[C@H]1OC(=O)/C=C/c1ccccc1[N+](=O)[O-] ?
2.33

What do you get for Cc1ccc(C(=O)O[C@@H]2C[C@H](C)CC[C@H]2C(C)C)cc1 ?
1.85

What do you get for CC(C)[C@@H]1CC[C@@H](C)C[C@H]1OC(=O)CCl ?
2

###

Kindly state -logMIC for each of the entries shown.
# Tested on: Escherichia coli
# method-notes: Antimicrobial activity against Escherichia coli MTCC 739 after 24 hr by serial dilution method
# Type: functional
Answer with the value's number alone.

Recorded -logMIC for COc1ccc(C(=O)O[C@@H]2C[C@H](C)CC[C@H]2C(C)C)cc1 , please?
1.98

What do you get for CCC(=O)O[C@@H]1C[C@H](C)CC[C@H]1C(C)C ?
1.75

What do you get for Cc1cccc(C(=O)O[C@@H]2C[C@H](C)CC[C@H]2C(C)C)c1 ?
1.93

What do you get for Cc1ccccc1C(=O)O[C@@H]1C[C@H](C)CC[C@H]1C(C)C ?
2.01

What do you get for CC(C)[C@@H]1CC[C@@H](C)C[C@H]1OC(=O)c1ccc(Cl)cc1 ?
1.67

What do you get for CC(C)[C@@H]1CC[C@@H](C)C[C@H]1OC(=O)/C=C/c1ccccc1 ?
1.96

What do you get for CC(C)[C@@H]1CC[C@@H](C)C[C@H]1OC(=O)c1ccccc1Cl ?
2.1

What do you get for CC(C)[C@@H]1CC[C@@H](C)C[C@H]1OC(=O)c1ccccc1[N+](=O)[O-] ?
2.29

What do you get for CC(C)[C@@H]1CC[C@@H](C)C[C@H]1OC(=O)c1cccc(Cl)c1 ?
1.88

What do you get for Cc1ccc(C(=O)O[C@@H]2C[C@H](C)CC[C@H]2C(C)C)cc1 ?
1.9

What do you get for CC(C)[C@@H]1CC[C@@H](C)C[C@H]1OC(=O)/C=C/c1cccc([N+](=O)[O-])c1 ?
2.14

What do you get for CC(C)[C@@H]1CC[C@@H](C)C[C@H]1OC(=O)/C=C/c1ccccc1[N+](=O)[O-] ?
2.33

What do you get for CC(C)[C@@H]1CC[C@@H](C)C[C@H]1OC(=O)c1cccc([N+](=O)[O-])c1 ?
2.29

What do you get for CC(=O)O[C@@H]1C[C@H](C)CC[C@H]1C(C)C ?
1.5

What do you get for CC(C)[C@@H]1CC[C@@H](C)C[C@H]1OC(=O)c1ccc([N+](=O)[O-])cc1[N+](=O)[O-] ?
2.35

What do you get for CC(C)[C@@H]1CC[C@@H](C)C[C@H]1OC(=O)c1ccc(Cl)cc1Cl ?
2.02

What do you get for CC(C)[C@@H]1CC[C@@H](C)C[C@H]1OC(=O)c1ccc([N+](=O)[O-])cc1 ?
1.99

What do you get for CC(C)[C@@H]1CC[C@@H](C)C[C@H]1OC(=O)CCl ?
1.79

What do you get for CC(Cl)C(=O)O[C@@H]1C[C@H](C)CC[C@H]1C(C)C (some centres not stated) ?
1.9

What do you get for COc1ccccc1C(=O)O[C@@H]1C[C@H](C)CC[C@H]1C(C)C ?
1.97

What do you get for COc1cccc(C(=O)O[C@@H]2C[C@H](C)CC[C@H]2C(C)C)c1 ?
1.97

What do you get for CC(C)[C@@H]1CC[C@@H](C)C[C@H]1OC(=O)c1cccc(Br)c1 ?
1.88

What do you get for CC(C)[C@@H]1CC[C@@H](C)C[C@H]1OC(=O)/C=C/c1ccc([N+](=O)[O-])cc1 ?
2.33

What do you get for CC(C)[C@@H]1CC[C@@H](C)C[C@H]1OC(=O)c1ccc(Br)cc1 ?
2.02

What do you get for CC(C)[C@@H]1CC[C@@H](C)C[C@H]1OC(=O)c1ccccc1 [MENTHYL BENZOATE] ?
2.01

What do you get for CC(C)[C@@H]1CC[C@@H](C)C[C@H]1OC(=O)c1ccccc1Br ?
1.98

What do you get for CCn1cc(C(=O)O)c(=O)c2cc(F)c(N3CCNCC3)cc21 ?
2.61
